Attribute: Ki
target: Cannabinoid receptor 1 (Homo sapiens); assay: biochemical; format: cell-based, CHO

| entry-smiles | experimental-system | Ki, nM |
| --- | --- | --- |
| CCCCN1C(=O)C(c2ccc(Br)cc2)(c2ccc(Br)cc2)NC1=S | Cannabinoid receptor 1 (Homo sapiens) | 1410 |
| CC(C)N1C(=O)C(c2ccc(Br)cc2)(c2ccc(Br)cc2)NC1=S | Cannabinoid receptor 1 (Homo sapiens) | 3630 |
| CCCCN1C(=O)C(c2ccc(I)cc2)(c2ccc(I)cc2)NC1=S | Cannabinoid receptor 1 (Homo sapiens) | 724 |

----------
biological target: Cannabinoid receptor 1 (Homo sapiens, UniProt P21554); experiment: Displacement of [3H]SR-141,716A from human Cannabinoid receptor 1 (CB1 receptor) expressed in CHO cells at 10 uM; assay type: cell-based
Sequence (P21554 whole entry): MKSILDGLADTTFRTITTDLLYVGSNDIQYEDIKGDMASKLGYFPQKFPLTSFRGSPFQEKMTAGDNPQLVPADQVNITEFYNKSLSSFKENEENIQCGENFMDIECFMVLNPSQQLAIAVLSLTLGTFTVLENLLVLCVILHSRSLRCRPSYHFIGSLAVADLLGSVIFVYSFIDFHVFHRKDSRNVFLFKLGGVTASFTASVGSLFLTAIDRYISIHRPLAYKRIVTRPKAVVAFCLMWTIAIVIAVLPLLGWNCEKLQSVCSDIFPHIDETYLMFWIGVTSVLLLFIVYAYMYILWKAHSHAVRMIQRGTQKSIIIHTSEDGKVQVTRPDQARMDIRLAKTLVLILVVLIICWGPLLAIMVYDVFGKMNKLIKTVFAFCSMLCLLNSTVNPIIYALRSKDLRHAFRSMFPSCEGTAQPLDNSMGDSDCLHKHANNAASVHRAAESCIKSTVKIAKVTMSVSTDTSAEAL
readout-type: Displacement (%)

| entry-smiles | readout-type | reported-value |
| --- | --- | --- |
| COCCCN1C(=O)C(c2ccccc2)(c2ccccc2)NC1=S | Displacement | 29.4 |
| CCCCCCCN1C(=O)C(c2ccc(Cl)cc2)(c2ccc(Cl)cc2)NC1=S | Displacement | 67.8 |
| C=CCN1C(=O)C(c2ccc(Br)cc2)(c2ccc(Br)cc2)NC1=S | Displacement | 87.2 |
| O=C1N(CCCO)C(=S)NC1(c1ccccc1)c1ccccc1 | Displacement | 20.8 |
| O=C1N(Cc2ccco2)C(=S)NC1(c1ccccc1)c1ccccc1 | Displacement | 59.2 |
| CCCCN1C(=O)C(c2ccccc2)(c2ccccc2)NC1=S | Displacement | 42.8 |
| CCCCCCCCN1C(=O)C(c2ccc(Cl)cc2)(c2ccc(Cl)cc2)NC1=S | Displacement | 36.6 |
| CCCCN1C(=O)C(c2ccc(Br)cc2)(c2ccc(Br)cc2)NC1=S | Displacement | 73.8 |
| CC(C)N1C(=O)C(c2ccccc2)(c2ccccc2)NC1=S | Displacement | 42.8 |
| C=CCN1C(=O)C(c2ccccc2)(c2ccccc2)NC1=S | Displacement | 40 |
| CC(C)CN1C(=O)C(c2ccc(Cl)cc2)(c2ccc(Cl)cc2)NC1=S | Displacement | 76.1 |
| O=C1N(Cc2ccccc2)C(=S)NC1(c1ccccc1)c1ccccc1 | Displacement | 44.7 |
| O=C1N(Cc2ccccc2)C(=S)NC1(c1ccc(Cl)cc1)c1ccc(Cl)cc1 | Displacement | 74.2 |
| O=C1N(CCc2ccccc2)C(=S)NC1(c1ccccc1)c1ccccc1 | Displacement | 29.3 |
| CCN1C(=O)C(c2ccc(Br)cc2)(c2ccc(Br)cc2)NC1=S | Displacement | 90.9 |
| CCCCCCCN1C(=O)C(c2ccccc2)(c2ccccc2)NC1=S | Displacement | 28.8 |
| C=CCN1C(=O)C(c2ccc(I)cc2)(c2ccc(I)cc2)NC1=S | Displacement | 94.2 |
| CCCCCCCCN1C(=O)C(c2ccc(Br)cc2)(c2ccc(Br)cc2)NC1=S | Displacement | 23.4 |
| CCCCCCCN1C(=O)C(c2ccc(Br)cc2)(c2ccc(Br)cc2)NC1=S | Displacement | 34.2 |
| CCCCCCCCN1C(=O)C(c2ccccc2)(c2ccccc2)NC1=S | Displacement | 38.8 |
| CCCCCCN1C(=O)C(c2ccc(Br)cc2)(c2ccc(Br)cc2)NC1=S | Displacement | 45.5 |
| CC(C)N1C(=O)C(c2ccc(Br)cc2)(c2ccc(Br)cc2)NC1=S | Displacement | 91.7 |
| CC(C)CN1C(=O)C(c2ccccc2)(c2ccccc2)NC1=S | Displacement | 34.6 |
| CC(C)CN1C(=O)C(c2ccc(Br)cc2)(c2ccc(Br)cc2)NC1=S | Displacement | 76.3 |
| CCN1C(=O)C(c2ccccc2)(c2ccccc2)NC1=S | Displacement | 40 |
| CCCCCCN1C(=O)C(c2ccccc2)(c2ccccc2)NC1=S | Displacement | 38.5 |
| O=C1N(CCc2ccccc2)C(=S)NC1(c1ccc(Br)cc1)c1ccc(Br)cc1 | Displacement | 54.6 |
| O=C1N(CCc2ccccc2)C(=S)NC1(c1ccc(Cl)cc1)c1ccc(Cl)cc1 | Displacement | 79.4 |
| CCCCN1C(=O)C(c2ccc(I)cc2)(c2ccc(I)cc2)NC1=S | Displacement | 77.4 |
| O=C1N(Cc2ccccc2)C(=S)NC1(c1ccc(Br)cc1)c1ccc(Br)cc1 | Displacement | 76 |

----------
target: Cannabinoid receptor 2 (Homo sapiens); assay: Displacement of [3H]CP-55940 from human CB2 receptor expressed in CHO cells at 10 uM; assay type: cell-based
Attribute: Displacement

| entry-smiles | experimental-system | Displacement |
| --- | --- | --- |
| CCCCCCCN1C(=O)C(c2ccccc2)(c2ccccc2)NC1=S | Cannabinoid receptor 2 (Homo sapiens) | < 10% |
| O=C1N(CCc2ccccc2)C(=S)NC1(c1ccc(Br)cc1)c1ccc(Br)cc1 | Cannabinoid receptor 2 (Homo sapiens) | < 10% |
| CCCCCCCCN1C(=O)C(c2ccccc2)(c2ccccc2)NC1=S | Cannabinoid receptor 2 (Homo sapiens) | < 20% |
| CC(C)CN1C(=O)C(c2ccc(Br)cc2)(c2ccc(Br)cc2)NC1=S | Cannabinoid receptor 2 (Homo sapiens) | < 20% |
| CCCCCCCCN1C(=O)C(c2ccc(Br)cc2)(c2ccc(Br)cc2)NC1=S | Cannabinoid receptor 2 (Homo sapiens) | < 10% |
| O=C1N(CCc2ccccc2)C(=S)NC1(c1ccc(Cl)cc1)c1ccc(Cl)cc1 | Cannabinoid receptor 2 (Homo sapiens) | < 15% |
| O=C1N(Cc2ccccc2)C(=S)NC1(c1ccc(Cl)cc1)c1ccc(Cl)cc1 | Cannabinoid receptor 2 (Homo sapiens) | < 15% |

----------
molecular target: UniProt:P21554; experiment: biochemical; type: cell-based, CHO
Attribute: log10(Ki)
readout-type: log10(Ki) (log10 of the value in nM)

| entry-smiles | reported-value |
| --- | --- |
| O=C1N(Cc2ccccc2)C(=S)NC1(c1ccc(Cl)cc1)c1ccc(Cl)cc1 | 3.34 |
| CCCCN1C(=O)NC(c2ccc(I)cc2)(c2ccc(I)cc2)C1=O | 3.26 |
| C=CCN1C(=O)C(c2ccc(I)cc2)(c2ccc(I)cc2)NC1=S | 2.77 |
| CC(C)CN1C(=O)C(c2ccc(Br)cc2)(c2ccc(Br)cc2)NC1=S | 3.25 |
| CC(C)CN1C(=O)C(c2ccc(Cl)cc2)(c2ccc(Cl)cc2)NC1=S | 3.32 |
| O=C1N(CCc2ccccc2)C(=S)NC1(c1ccc(Cl)cc1)c1ccc(Cl)cc1 | 3.58 |
| CCCCCCC(C)(C)c1cc(O)c2c(c1)OC(C)(C)[C@H]1CC=C(CO)C[C@H]21 | 1.27 |
